Molecular target: UniProtKB P19643
Sequence (P19643 whole entry): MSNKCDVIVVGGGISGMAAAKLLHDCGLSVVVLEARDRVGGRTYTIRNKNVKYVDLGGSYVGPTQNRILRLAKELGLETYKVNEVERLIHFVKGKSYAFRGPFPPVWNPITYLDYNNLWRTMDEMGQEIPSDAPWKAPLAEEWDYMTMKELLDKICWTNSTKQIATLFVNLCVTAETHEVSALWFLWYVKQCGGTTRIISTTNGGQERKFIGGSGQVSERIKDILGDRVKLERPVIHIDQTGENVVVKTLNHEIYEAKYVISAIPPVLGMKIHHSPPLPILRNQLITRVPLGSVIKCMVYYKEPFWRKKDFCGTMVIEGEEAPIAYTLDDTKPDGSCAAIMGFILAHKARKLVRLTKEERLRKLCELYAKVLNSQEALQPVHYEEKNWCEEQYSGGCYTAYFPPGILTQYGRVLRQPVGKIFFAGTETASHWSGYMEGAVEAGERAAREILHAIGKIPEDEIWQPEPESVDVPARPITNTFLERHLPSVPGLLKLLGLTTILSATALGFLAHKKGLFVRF
Test: Compound was evaluated for the time-dependence inhibition of MAO-B at 30 minutes pre-incubation periods
Observable: IC50 (nM)

> print(dat)
                              cpd.smiles            target  value
1  N#CCCn1nc(-c2ccc(OCc3ccccc3)cc2)oc1=O  UniProtKB P19643    2.2
2  N#CCCn1nc(-c2ccc(OCc3ccccc3)cc2)oc1=S  UniProtKB P19643    4.7
3    O=c1oc(-c2ccc(OCc3ccccc3)cc2)nn1CCO  UniProtKB P19643    4.4

FYI, the data here is from ChEMBL document CHEMBL1126975.
